- Test system: alpha-1B adrenoceptor (Homo sapiens, UniProt P35368)
- Construct: expressed in transfected cells; host or cells: CHO-K1
- Sequence (P35368 whole entry): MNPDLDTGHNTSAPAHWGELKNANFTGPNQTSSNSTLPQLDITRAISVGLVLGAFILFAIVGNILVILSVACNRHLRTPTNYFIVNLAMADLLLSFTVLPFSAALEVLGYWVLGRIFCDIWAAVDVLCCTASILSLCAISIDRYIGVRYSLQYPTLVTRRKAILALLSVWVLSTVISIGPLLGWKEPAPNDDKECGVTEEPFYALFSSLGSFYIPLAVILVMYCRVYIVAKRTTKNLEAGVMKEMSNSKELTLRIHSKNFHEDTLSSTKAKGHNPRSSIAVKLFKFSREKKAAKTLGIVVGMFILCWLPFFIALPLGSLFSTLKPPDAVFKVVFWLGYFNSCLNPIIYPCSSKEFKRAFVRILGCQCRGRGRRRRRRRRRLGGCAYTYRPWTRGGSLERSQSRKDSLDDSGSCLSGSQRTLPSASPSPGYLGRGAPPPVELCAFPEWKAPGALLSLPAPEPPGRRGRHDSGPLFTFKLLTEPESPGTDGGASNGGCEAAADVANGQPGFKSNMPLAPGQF
- Experimental protocol: [3H]prazosin binding (alpha1-adrenoceptor) assay, alpha-1B
- Measurement conditions: membranes of transfected CHO-KI cells, read-out: affinity towards the alpha-1B adrenoceptor (pKi) (converted)
- Experimental: Alpha1A, alpha1B, and alpha1D adrenoceptor transfected CHO-KI cells, prepared using the methods described by Chang et al., FEBS Lett. 1998, 422:279-283, were grown to confluence in T-162 tissue culture flasks in Ham's F-12 culture medium supplemented with 10% fetal bovine serum, geneticin (150 µg/mL) and streptomycin/penicillin (30 µg/mL/30 µg/mL) at 37 °C in 7% CO2. Cells were harvested by incubating with phosphate-buffered saline (PBS) containing 30 µM EDTA for 5-10 min at 37 °C. […]
Reported Ki values for a set of compounds
Readout type: Ki (nM)

[[record]]
compound_structure = "COc1cc2c(cc1OC)S(=O)(=O)NC(N1CCc3c(ncnc3N3CCOCC3)C1)=N2"
readout_type = "Ki"
endpoint_result = 31.6

[[record]]
compound_structure = "COc1cc2nc(N3CCc4c([nH]c5ccccc45)C3)[nH]c(=O)c2cc1OC"
readout_type = "Ki"
endpoint_result = 1.1

[[record]]
compound_structure = "COc1cc2[nH]c(N3CCn4c(cnc4N4CCOCC4)C3)nc(=O)c2cc1OC"
readout_type = "Ki"
endpoint_result = 17.4

[[record]]
compound_structure = "COc1cc2nc(N3CCc4nc5ccncc5cc4C3)[nH]c(=O)c2cc1OC"
readout_type = "Ki"
endpoint_result = 5.25

[[record]]
compound_structure = "COc1cc2[nH]c(N3CCc4ccncc4C3)nc(=O)c2cc1OC"
readout_type = "Ki"
endpoint_result = 41.7

[[record]]
compound_structure = "COc1cc2nc(N3CCc4c(cc(OC)c(OC)c4C#N)C3)[nH]c(=O)c2cc1OC"
readout_type = "Ki"
endpoint_result = 1.51

[[record]]
compound_structure = "COc1cc2nc(N3CCc4c(ncn4-c4ccccc4)C3)[nH]c(=O)c2cc1OC"
readout_type = "Ki"
endpoint_result = 4.27

[[record]]
compound_structure = "COc1cc2nc(N3CCc4c(cccc4S(=O)(=O)N4CCN(C)CC4)C3)[nH]c(=O)c2cc1OC"
readout_type = "Ki"
endpoint_result = 52.5

[[record]]
compound_structure = "COc1cc2nc(N3CCc4c(ncnc4Nc4cccc(C)n4)C3)[nH]c(=O)c2cc1OC"
readout_type = "Ki"
endpoint_result = 13.2

[[record]]
compound_structure = "COc1cc2nc(N3CCc4c(cccc4NC4=NCCC4)C3)[nH]c(=O)c2cc1OC"
readout_type = "Ki"
endpoint_result = 6.61

[[record]]
compound_structure = "COc1cc2nc(N3CCc4c(ncn4Cc4ccccc4)C3)[nH]c(=O)c2cc1OC"
readout_type = "Ki"
endpoint_result = 20


----------
Reported log10 Ki values for a set of compounds
- Test system: alpha-1A adrenoceptor (Homo sapiens, UniProt P35348)
- Construct: expressed in transfected cells; host or cells: CHO-K1
- Sequence (P35348 1-466): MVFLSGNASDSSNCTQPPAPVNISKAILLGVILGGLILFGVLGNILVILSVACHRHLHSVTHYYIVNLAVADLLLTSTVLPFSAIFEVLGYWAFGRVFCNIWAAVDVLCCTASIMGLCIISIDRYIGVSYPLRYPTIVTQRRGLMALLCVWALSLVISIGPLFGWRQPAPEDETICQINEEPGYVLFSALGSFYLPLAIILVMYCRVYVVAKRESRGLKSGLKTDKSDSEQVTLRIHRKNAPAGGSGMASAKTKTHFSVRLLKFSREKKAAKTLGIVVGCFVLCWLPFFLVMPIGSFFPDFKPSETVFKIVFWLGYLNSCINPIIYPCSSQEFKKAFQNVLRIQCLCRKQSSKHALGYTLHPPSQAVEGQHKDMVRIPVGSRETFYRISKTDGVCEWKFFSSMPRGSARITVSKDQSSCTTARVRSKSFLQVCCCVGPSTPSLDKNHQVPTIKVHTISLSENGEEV
- Experimental protocol: [3H]prazosin binding (alpha1-adrenoceptor) assay, alpha-1A
- Measurement conditions: membranes of transfected CHO-KI cells, read-out: affinity towards the alpha-1A adrenoceptor (pKi) (converted)
Readout type: log10 Ki (log10 of the value in nM)

[[record]]
compound_structure = "COc1cc2nc(N3CCc4c(cccc4-c4cccnc4)C3)[nH]c(=O)c2cc1OC"
endpoint_result = 0.07

[[record]]
compound_structure = "COc1cc2nc(N3CCc4c(cccc4NC4=NCCC4)C3)[nH]c(=O)c2cc1OC"
endpoint_result = 0.98

[[record]]
compound_structure = "COc1cc2nc(N3CCc4c(ncnc4N4CCN(C)CC4)C3)[nH]c(=O)c2cc1OC"
endpoint_result = 0.65

[[record]]
compound_structure = "COc1ccc(-c2cccc3c2CCN(c2nc4cc(OC)c(OC)cc4c(=O)[nH]2)C3)cc1"
endpoint_result = 0.58

[[record]]
compound_structure = "COc1cc2nc(N3CCc4c(cc(OC)c(OC)c4C#N)C3)[nH]c(=O)c2cc1OC"
endpoint_result = -0.12

[[record]]
compound_structure = "COc1cc2nc(N3CCc4c(cccc4S(=O)(=O)N4CCN(C)CC4)C3)[nH]c(=O)c2cc1OC"
endpoint_result = 1.18

[[record]]
compound_structure = "COc1cc2c(cc1OC)CN(c1nc(=O)c3cc(OC)c(OC)cc3[nH]1)CC2"
endpoint_result = -0.02

[[record]]
compound_structure = "COc1cc2[nH]c(N3CCn4c(cnc4N4CCOCC4)C3)nc(=O)c2cc1OC"
endpoint_result = 0.89


----------
Reported Ki values for a set of compounds
- Test system: alpha-1D adrenoceptor (Homo sapiens, UniProt P25100)
- Construct: expressed in transfected cells; host or cells: CHO-K1
- Sequence (P25100 1-572): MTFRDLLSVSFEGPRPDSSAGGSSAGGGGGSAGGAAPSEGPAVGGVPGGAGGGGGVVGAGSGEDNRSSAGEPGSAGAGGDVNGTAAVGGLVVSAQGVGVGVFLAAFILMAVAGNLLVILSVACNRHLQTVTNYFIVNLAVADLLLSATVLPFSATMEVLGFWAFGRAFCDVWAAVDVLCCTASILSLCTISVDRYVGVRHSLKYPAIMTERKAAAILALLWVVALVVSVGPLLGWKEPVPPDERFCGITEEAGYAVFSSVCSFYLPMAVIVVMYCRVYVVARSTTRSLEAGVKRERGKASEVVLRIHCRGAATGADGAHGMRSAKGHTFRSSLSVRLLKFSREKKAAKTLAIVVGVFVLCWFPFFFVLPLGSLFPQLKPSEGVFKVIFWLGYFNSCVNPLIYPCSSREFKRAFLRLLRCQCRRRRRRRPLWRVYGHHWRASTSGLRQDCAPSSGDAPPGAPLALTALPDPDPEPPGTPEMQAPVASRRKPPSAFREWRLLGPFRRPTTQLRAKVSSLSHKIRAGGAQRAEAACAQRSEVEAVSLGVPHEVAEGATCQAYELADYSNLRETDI
- Experimental protocol: [3H]prazosin binding (alpha1-adrenoceptor) assay, alpha-1D
- Measurement conditions: membranes of transfected CHO-KI cells, read-out: affinity towards the alpha-1D adrenoceptor (pKi) (converted)
Readout type: Ki (nM)

[[record]]
compound_structure = "COc1cc2c(cc1OC)CN(c1nc(=O)c3cc(OC)c(OC)cc3[nH]1)CC2"
readout_type = "Ki"
reading_unit = "nM"
endpoint_result = 47.9

[[record]]
compound_structure = "COc1cc2nc(N3CCc4c(ncn4Cc4ccccc4)C3)[nH]c(=O)c2cc1OC"
readout_type = "Ki"
reading_unit = "nM"
endpoint_result = 347

[[record]]
compound_structure = "COc1cc2[nH]c(N3CCn4c(cnc4-c4ccccc4)C3)nc(=O)c2cc1OC"
readout_type = "Ki"
reading_unit = "nM"
endpoint_result = 6.17

[[record]]
compound_structure = "COc1cc2nc(N3CCc4ccc(N5CCCC5)cc4C3)[nH]c(=O)c2cc1OC"
readout_type = "Ki"
reading_unit = "nM"
endpoint_result = 33.9

[[record]]
compound_structure = "COc1cc2[nH]c(N3CCc4ccncc4C3)nc(=O)c2cc1OC"
readout_type = "Ki"
reading_unit = "nM"
endpoint_result = 468

[[record]]
compound_structure = "COc1cc2nc(N3CCc4c(cccc4-c4cccnc4)C3)[nH]c(=O)c2cc1OC"
readout_type = "Ki"
reading_unit = "nM"
endpoint_result = 132

[[record]]
compound_structure = "COc1cc2nc(N3CCc4c(cccc4S(=O)(=O)N4CCN(C)CC4)C3)[nH]c(=O)c2cc1OC"
readout_type = "Ki"
reading_unit = "nM"
endpoint_result = 1170

[[record]]
compound_structure = "COc1ccc(-n2cnc3c2CCN(c2nc4cc(OC)c(OC)cc4c(=O)[nH]2)C3)cc1"
readout_type = "Ki"
reading_unit = "nM"
endpoint_result = 83.2

[[record]]
compound_structure = "COc1cc2[nH]c(N3CCc4c(ncn4C4CCCCC4)C3)nc(=O)c2cc1OC"
readout_type = "Ki"
reading_unit = "nM"
endpoint_result = 81.3

[[record]]
compound_structure = "COc1cc2nc(N3CCc4c(ncnc4Nc4cccc(C)n4)C3)[nH]c(=O)c2cc1OC"
readout_type = "Ki"
reading_unit = "nM"
endpoint_result = 182

[[record]]
compound_structure = "COc1cc2nc(N3CCc4c(ncn4-c4ccccc4)C3)[nH]c(=O)c2cc1OC"
readout_type = "Ki"
reading_unit = "nM"
endpoint_result = 37.2

[[record]]
compound_structure = "COc1cc2nc(N3CCc4nc5ccncc5cc4C3)[nH]c(=O)c2cc1OC"
readout_type = "Ki"
reading_unit = "nM"
endpoint_result = 91.2

